Target: T1, Chryseobacterium sp-62563 deamidase polypeptide (second polypeptide, deamidase domain), wildtype (Chryseobacterium sp-62563)
T1 sequence: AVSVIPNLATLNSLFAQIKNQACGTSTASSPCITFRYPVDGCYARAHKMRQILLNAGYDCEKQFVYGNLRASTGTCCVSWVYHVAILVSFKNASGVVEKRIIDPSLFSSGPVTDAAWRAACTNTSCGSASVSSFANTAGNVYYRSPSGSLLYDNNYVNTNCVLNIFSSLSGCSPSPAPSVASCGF
Assay: cell-based or functional assay
Measured Leakage activity values are reported for all entries that follow.
Numeric only. Scale: %

Worked set:
[ask] For the binder shown here, Chryseobacterium sp-62563 propeptide R108N (protein) NQDPNLVAKESNETAMKDFGKTVPVGIEKEDGKFKISFMVTAQPYEIKDSKENAAYISMIKTAVENETPIHVFLKANTNEIAKVDKATDDDIRYFKSVFTKEVKEENNK , give the reported Leakage activity.
[reply] 0

[ask] Item: Chryseobacterium sp-62563 propeptide K35E (protein) NQDPNLVAKESNETAMKDFGKTVPVGIEKEDGKFEISFMVTAQPYEIKDSKENAAYISMIKTAVENETPIHVFLKANTNEIAKVDKATDDDIRYFKSVFTKEVKEENRK
[reply] 0

[ask] Item: Chryseobacterium sp-62563 propeptide K33E (protein) NQDPNLVAKESNETAMKDFGKTVPVGIEKEDGEFKISFMVTAQPYEIKDSKENAAYISMIKTAVENETPIHVFLKANTNEIAKVDKATDDDIRYFKSVFTKEVKEENRK
[reply] 0

[ask] Item: Chryseobacterium sp-62563 propeptide F99D (protein) NQDPNLVAKESNETAMKDFGKTVPVGIEKEDGKFKISFMVTAQPYEIKDSKENAAYISMIKTAVENETPIHVFLKANTNEIAKVDKATDDDIRYFKSVDTKEVKEENRK
[reply] 9

[ask] Item: Chryseobacterium sp-62563 propeptide G20D (protein) NQDPNLVAKESNETAMKDFDKTVPVGIEKEDGKFKISFMVTAQPYEIKDSKENAAYISMIKTAVENETPIHVFLKANTNEIAKVDKATDDDIRYFKSVFTKEVKEENRK
[reply] 0

---
[ask] For the binder shown here, Chryseobacterium sp-62563 propeptide T41D (protein) NQDPNLVAKESNETAMKDFGKTVPVGIEKEDGKFKISFMVDAQPYEIKDSKENAAYISMIKTAVENETPIHVFLKANTNEIAKVDKATDDDIRYFKSVFTKEVKEENRK , give the reported Leakage activity.
[reply] 0

[ask] Item: Chryseobacterium sp-62563 propeptide D18K (protein) NQDPNLVAKESNETAMKKFGKTVPVGIEKEDGKFKISFMVTAQPYEIKDSKENAAYISMIKTAVENETPIHVFLKANTNEIAKVDKATDDDIRYFKSVFTKEVKEENRK
[reply] 5

[ask] Item: Chryseobacterium sp-62563 propeptide Y45Q (protein) NQDPNLVAKESNETAMKDFGKTVPVGIEKEDGKFKISFMVTAQPQEIKDSKENAAYISMIKTAVENETPIHVFLKANTNEIAKVDKATDDDIRYFKSVFTKEVKEENRK
[reply] 6
